assay: Cytotoxicity counterscreen for inhibitors of SARS-CoV-2 cell entry (AID 1645845); conditions: cell viability (SARS-CoV-2 entry assay cells); series mostly up to 57.1 µM; further: nearly all actives have a fitted effect of over 50% in size
Records with an inconclusive call do not appear. Calls of active or inactive are those of the source. The call rests on the fitted dose curve.
Hi! Could you answer with just one of these? active, inactive

Below, 4 compounds whose answers are already recorded.
N#CC1(c2ccc(NC(=O)c3cccnc3NCc3ccncc3)cc2)CCCC1	inactive
CC[C@H]1/C=C\C=C/C[C@@H](C)[C@H](O)[C@@](C)(O)C(=O)[C@@H](C)[C@H](O)[C@@H](C)C(=O)[C@@H](C)[C@H](O)[C@@H](C)/C=C\C(=O)O[C@@H]2[C@H](C)[C@H](CC1)O[C@]1(CC[C@H](C)[C@H](C[C@@H](C)O)O1)[C@H]2C	active
Cc1ccccc1O	inactive
COc1ccc(Nc2nccc(NCCO)n2)cc1	inactive

Request: Look up the recorded call for CCCc1c(OCCCOc2ccc(OCC(=O)O)cc2)ccc(C(C)=O)c1O in this test.
Result: inactive

Request: Look up the recorded call for CO[C@H]1[C@@H](O)[C@H](N)[C@@H](O[C@H]2O[C@H]([C@H](C)N)CC[C@H]2N)[C@H](O)[C@@H]1N(C)C(=O)CN in this test.
Result: inactive

Request: Look up the recorded call for C[Se]CCC(N)C(=O)O (centres undefined) in this test.
Result: inactive

Request: Look up the recorded call for CN[C@H]1CCc2cc(OC)c(OC)c(OC)c2-c2ccc(OC)c(=O)cc21 in this test.
Result: inactive

Request: Look up the recorded call for C=C(C)[C@@H]1CC[C@]2(C(=O)O)CC[C@]3(C)[C@H](CC[C@@H]4[C@@]5(C)CC[C@H](O)C(C)(C)[C@@H]5CC[C@]43C)[C@@H]12 in this test.
Result: inactive
